Just for reference, ChEMBL document CHEMBL4619812 is where these values come from.

# Assay Details: Oral bioavailability in rat
# Assay type: ADME, organism-based
# Test Parameters: in vivo

>  <Chemical String>
C[C@H](C(=O)Nc1ccc(F)cc1)C12CC(NC(=O)c3cccc(Cl)c3)(C1)C2

>  <bioavailability [%]>
110

$$$$
>  <Chemical String>
C[C@H](C(=O)Nc1ccc(F)cc1)C12CC(NC(=O)c3ccc(F)c(F)c3)(C1)C2

>  <bioavailability [%]>
83

$$$$

###

# Assay Details: Unbound intrinsic clearance in human hepatocytes
# Type: ADME, cell-based, Hepatocyte
Recorded CL free determines the label; the label ranges are low = under 50 mL/min/kg, medium = from 50 mL/min/kg up to 400 mL/min/kg, high = 400 mL/min/kg and over

>  <Chemical String>
C[C@H](C(=O)Nc1ccc(F)cc1)C12CC(NC(=O)OC3CCCC3)(C1)C2

>  <Assigned Class>
high

$$$$
>  <Chemical String>
C[C@H](C(=O)Nc1ccc(F)cc1)C12CC(NC(=O)c3cccc(Cl)n3)(C1)C2

>  <Assigned Class>
medium

$$$$
>  <Chemical String>
C[C@H](C(=O)Nc1ccc(F)cc1)C12CC(NC(=O)c3cccc(Cl)c3F)(C1)C2

>  <Assigned Class>
high

$$$$
>  <Chemical String>
C[C@H](C(=O)Nc1ccc(F)cc1)C12CC(NC(=O)c3cc(F)cc(Cl)c3)(C1)C2

>  <Assigned Class>
medium

$$$$
>  <Chemical String>
C[C@H](C(=O)Nc1ccc(F)cc1)C12CC(NC(=O)c3ccc(F)c(Cl)c3)(C1)C2

>  <Assigned Class>
medium

$$$$
>  <Chemical String>
C[C@H](C(=O)Nc1ccc(F)cc1)C12CC(Nc3ncnc4ccc(F)cc34)(C1)C2

>  <Assigned Class>
high

$$$$
>  <Chemical String>
C[C@H](C(=O)Nc1ccc(F)cc1)C12CC(NC(=O)c3ccc(F)c(F)c3)(C1)C2

>  <Assigned Class>
medium

$$$$
>  <Chemical String>
CC(C)OC(=O)NC12CC([C@H](C)C(=O)Nc3ccc(F)cc3)(C1)C2

>  <Assigned Class>
medium

$$$$
>  <Chemical String>
C[C@H](C(=O)Nc1ccc(Cl)cc1)C12CC(NC(=O)c3cccc(Cl)c3)(C1)C2

>  <Assigned Class>
low

$$$$
>  <Chemical String>
C[C@H](C(=O)Nc1ccc(Cl)nc1)C12CC(NC(=O)c3cccc(Cl)c3)(C1)C2

>  <Assigned Class>
low

$$$$
>  <Chemical String>
C[C@H](C(=O)Nc1ccc(F)cc1)C12CC(Nc3ncnc4ccccc34)(C1)C2

>  <Assigned Class>
high

$$$$
>  <Chemical String>
C[C@H](C(=O)Nc1ccc(F)cc1)C12CC(NC(=O)c3cccc(Cl)c3)(C1)C2

>  <Assigned Class>
low

$$$$
